List of TGI values.
# Test system: OVCAR-4 ovarian
# experimentDescription: NCI tumour cell line growth inhibition, 48 h

Query: State its TGI on OVCAR-4 ovarian: CSc1nc2c(ncn2C2OC(CO)C(O)C(O)C2O)c(=O)n1C (centres undefined)
Response: > 100 µM

Query: Another compound to look at: COc1ccc(C)cc1NC(=S)N/N=C/c1ccco1
Response: > 100 µM

Query: Okay, and Nc1nc(N)c2ncn(Cc3ccccc3CO)c2n1 ?
Response: > 100 µM

Proceeding to the next compound to report its TGI.
Query: Form: Entry = O=C1/C(=C/c2ccc([N+](=O)[O-])s2)Oc2ccc(Br)cc21 | System = OVCAR-4 ovarian | TGI = ____
Response: 1.43 µM
